Test system: SN12C
Test: NCI tumour cell line growth inhibition, 48 h
Activity calls are given as the source filed them. No stated cut-off is given here; in the data, active = GI50 up to about 1.1 µM and inactive = higher.
OBSERVED_PROPERTY: GI50

Worked examples follow.
CC(C)OP(=O)(OC(C)C)/C(=N/Nc1ccc([N+](=O)[O-])cc1)NCCO : > 100 µM (inactive)
NC(=O)NCCCC(NC(=O)OCCCCCn1ccc(=O)[nH]c1=O)C(=O)O (configuration not stated) : > 100 µM (inactive)
[N-]=[N+]=NC1=CC(=O)c2cccc3cccc1c23 : 43.3 µM (inactive)
CC1=Nc2ccccc2SC(c2c(Cl)cccc2Cl)C1 (configuration not stated) : 1.33 µM (inactive)
O=C1/C(=C/c2cccc(O)c2)COc2ccccc21 : 8.04 µM (inactive)

Input: Can you share its GI50? I mean this compound: NCCCNc1ccc2c(c1)[n+]([O-])c1ccccc1[n+]2[O-]
Output: 26 µM (inactive)

Input: # GI50 lookup, item Cc1ccc(/C=C2\CN(C)CC3=C2N=C(S)NC3c2ccc(C)cc2)cc1 (configuration not stated)
Output: 32.7 µM (inactive)

* * *

Test system: SN12C
Assay: NCI tumour cell line growth inhibition, 48 h
The source made the active and inactive calls. Rule as the data show it: active = GI50 up to about 1.1 µM and inactive = higher.
Examples of compounds with documented GI50 follow.

Consider the following illustrative entries.
COC(=O)c1cn(CCCCO)nn1 : > 100 µM (inactive)
c1coc(C2=Nc3cccc4cccc(c34)N2)c1 : 28.4 µM (inactive)
CC(C)C1=CC(=O)C(C)(C2=NC(C)(C)CO2)c2ccccc21 (configuration not stated) : > 100 µM (inactive)
Cc1n[nH]c(=O)n1/N=C/c1ccco1 : > 100 µM (inactive)
c1ccc2c(c1)[nH]c1nc3cc(-c4ccc5nc6c(nc5c4)[nH]c4ccccc46)ccc3nc12 : > 100 µM (inactive)

Input: Fill in: GI50 of COc1cc2c(cc1OC)C(Cl)C(c1ccc(F)cc1)=C2Cl (configuration not stated) is ___
Output: 12.8 µM (inactive)

Input: Recorded GI50 of COc1c(C)n(CCO)ccc1=O , please.
Output: > 100 µM (inactive)

Input: Entry N#CCC(=O)Nc1cccc(C(F)(F)F)c1 has what GI50?
Output: > 100 µM (inactive)

Input: Any idea what its GI50 is? The compound is O=C(/C=C/c1ccc2c(c1)OCO2)NCc1ccco1
Output: > 100 µM (inactive)

Input: Suppose we examine the compound COc1ccc2nc3ccccc3c(NCCCCCCN(CCCl)CCCl)c2c1 ; what GI50 value has been reported?
Output: 0.0348 µM (active)

Input: Query (compound): CC(=O)NNc1nc(C)c(C(=O)/C=C/c2ccc(/C=C/C(=O)c3sc(NNC(C)=O)nc3C)cc2)s1 ; field requested: GI50
Output: > 100 µM (inactive)

Input: Entry under review: Brc1ccc(C[P+]2(c3ccccc3)CCCCC2)cc1.[O-][Cl+3]([O-])([O-])[O-] . Reported GI50?
Output: > 100 µM (inactive)

* * *

Test system: SK-OV-3
Experiment: NCI tumour cell line growth inhibition, 48 h
Active and inactive are the calls of the source. Rule as the data show it: active = GI50 up to about 1.1 µM and inactive = higher.
Pick one and only one: 1 (active), -1 (inactive)

Known results for compounds:
NC(=O)CCC(NC(=O)C(F)(F)F)C(=O)O (stereo not drawn) : -1
O=C1N[C@@H](COc2ccc(/C=N/c3ccc(CCc4ccc(/N=C/c5ccc(OC[C@@H]6COC(=O)N6)cc5)cc4)cc3)cc2)CO1 : -1
CN(Cc1ccccc1)C1(N(C)Cc2ccccc2)CC1 : -1
COc1c(C)c(C/C=C(\C)CCCCO)c(OC)c(OC)c1OC : -1
CC1(C)C2CC(O)C1CCC2=O (stereo not drawn) : -1
CC(C)C(=O)NC(=S)Nc1ccc([N+](=O)[O-])cc1C#N : -1

Input: GET /call?item= O=C1c2cc([N+](=O)[O-])ccc2-c2cccc(F)c21 returns the recorded outcome of this test.
Output: -1

Input: Per the records of this test, what outcome belongs to COC(=O)NC1(NC(=O)OC)NC(=O)c2cc(OC)c(OC)c(OC)c2N1 ?
Output: -1

Input: Returns: the outcome recorded for Cc1cccc(Br)[n+]1[O-] in this assay.
Output: -1

Input: Please state the recorded outcome for this compound: CN(C)CCCNc1ccc2nnn3c4ccc(OC(=O)c5ccccc5)cc4c(=O)c1c23
Output: -1

Input: Please share the test call associated with CN(C)C(=S)/N=c1\ssc(=S)n1Cc1ccccc1 .
Output: 1

Input: Test call for this compound, please: CN1C(Cl)=NS(=O)(=O)c2ccccc21
Output: -1

Input: Could you kindly confirm the outcome this assay logged for CC1CC/C(=C\c2ccc(Cl)cc2)c2nc(N)c(C#N)c(-c3ccc(Cl)cc3)c21 (stereo not drawn) ?
Output: -1

Input: Call for entry O=C1C=C(Nc2ccc(Cl)cc2Cl)c2ccccc2C1=O :
Output: -1
